# targetSystem: Dual specificity protein kinase CLK1 (Homo sapiens)
# testMethodNotes: Binding affinity to CLK1 assessed as change in thermal denaturation at 10 uM by thermal stability shift assay
metricName: ΔTm (°C)

Solved entries (count: 5):
>>> print(df.to_string())
                                   compound  metricname  readoutvalue
0       Cn1c2c(Cl)c(Cl)ccc2c2cc[nH]c(=O)c21         ΔTm           4.6
1  CN1CCC2(CC1)NC(=O)c1c(c3ccc(Cl)c(Cl)c3n1C)C2C#N (racemic)         ΔTm           5.7
2  N#CC1c2c([nH]c3c(Cl)c(Cl)ccc23)C(=O)NC12CCCCC2 (racemic)         ΔTm           5.4
3  Cn1c2c(c3ccc(Cl)c(Cl)c31)C(C#N)C(C)(C)NC2=O (configuration not stated)         ΔTm           6.4
4  CCC1(CC)NC(=O)c2c(c3ccc(Cl)c(Cl)c3n2C)C1C#N (configuration not stated)         ΔTm           3.5

a: Cn1c2c(c3ccc(Cl)c(Cl)c31)C(C#N)C1(CCOCC1)NC2=O (configuration not stated)
b: Cn1c2c(c3ccccc31)C(C#N)C(C)(C)NC2=O (configuration not stated)
c: Cn1c2c(c3ccc(Cl)c(Cl)c31)C(C#N)C1(CCN(C(=O)OC(C)(C)C)CC1)NC2=O (racemic)
Query :: Please give the order of these compounds when sorted by ΔTm, largest value leading. Provide your answer as the labels ordered per the instruction.
Result :: a, b, c

P: Cn1c2c(c3ccc(Cl)c(Cl)c31)C(C#N)C1(CCCCC1)NC2=O (racemic)
Q: CC(=O)NCC1c2c(n(C)c3c(Cl)c(Cl)ccc23)C(=O)NC1(C)C (racemic)
Query :: Lab notebook, comparison: P versus Q , higher ΔTm goes to which? Output the label that corresponds to your choice.
Result :: P
(P: 4 °C, Q: 2.6 °C)
